Numbers sourced from PubChem BioAssay (NCI).

test: NCI Yeast Anticancer Drug Screen. Data for the mlh1 rad18 strain (AID 175); details: S. cerevisiae mlh1 rad18 strain growth inhibition; at 50.0 µM; hits give high values
Compounds without any hit were thinned out: in the full panel of roughly 79,000, 15% have a hit.
Lab note: compare growth inhibition against 10%. Equal or greater, write criterion met. Smaller, write criterion not met.

molecule	group_label
C=C(CCC(C)C1CCC2(C)C3=C(CC(O)C12C)C1(C)CCC(O)C(C)(C)C1CC3)C(C)C(=O)O (stereo not drawn)	criterion met
Brc1cc2ccccc2c2ccccc12	criterion met
O=C1c2ccccc2C(=O)c2sc(Nc3cccc(Cl)c3)nc21	criterion met
O=S(=O)(Cl)c1ccc(Br)cc1	criterion not met
S=c1nc(N2CCCCC2)ss1	criterion met

Test whether the molecule "Cc1ccc(-c2c3c(cc4cc(C)ccc24)C(=O)OC3=O)cc1" records growth inhibition of 10% or higher.
criterion met

Test whether the molecule "COC(=O)c1n[nH]c(C)c1N=NN1CCC(C(N)=O)CC1" records growth inhibition of 10% or higher.
criterion met

Test whether the molecule "COc1ccc(-n2c(=O)c3[nH]c(=S)[nH]c3n(-c3ccc(OC)cc3)c2=S)cc1" records growth inhibition of 10% or higher.
criterion not met

* * *

assay: NCI Yeast Anticancer Drug Screen. Data for the rad50 strain (AID 155);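 further: 0% = growth of vehicle-only cultures of the same strain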; conditions: S. cerevisiae rad50 strain growth inhibition; at 50.0 µM (retest, dose inferred, filed as 5.0); hits give high values
Compounds without any hit were thinned out: in the full panel of roughly 79,000, 15% have a hit.
Each item that follows carries a reported growth inhibition.
Kindly answer with a numeric value in %, unit omitted.

Look over these answered cases.
compound	metric	endpoint_value
Nc1ccc2c(SCCSc3c4ccccc4nc4cc(N)ccc34)c3ccccc3nc2c1	growth inhibition	81
COc1cccc(C(=O)C(CN(C)C)CN(C)C)c1	growth inhibition	70
Cn1cc(NC(=O)c2cc(NC(=O)CCCCCCCC(=O)Nc3cc(C(=O)Nc4cc(C(=O)NCCC(=N)N)n(C)c4)n(C)c3)cn2C)cc1C(=O)NCCC(=N)N	growth inhibition	96
O=C(CBr)c1ccc2cc(Br)c3ccccc3c2c1	growth inhibition	94
c1ccc(NCCSc2nc3ccccc3s2)cc1	growth inhibition	44

For the compound "Cn1c(C(C)(C)OC(=O)Oc2ccccc2)cnc1[N+](=O)[O-]" , what growth inhibition is on record?
51

For the compound "O=C1c2cccnc2-c2nccc3c2c1nc1cc(Br)ccc13" , what growth inhibition is on record?
98

* * *

test: NCI Yeast Anticancer Drug Screen. Data for the mlh1 rad18 strain (AID 175); conditions: S. cerevisiae mlh1 rad18 strain growth inhibition; at 5.0 µM (retest, dose inferred, filed as 0.5); hits give high values
Compounds without any hit were thinned out: in the full panel of roughly 79,000, 15% have a hit.
metric: growth inhibition (%)
Kindly answer with a numeric value in %, unit omitted.

compound	unit_tag	growth inhibition
Nc1nc2nc(I)[nH]c2c(=O)[nH]1	%	-9
O=C(O/N=C1/CCC/C1=C\c1ccccc1)c1ccccc1	%	57
COC(=O)C12Oc3ccc(-c4ccc5c(c4O)C(O)=C4C(=O)CC(C)C(O)C4(C(=O)OC)O5)c(O)c3C(O)=C1C(=O)CC(C)C2O (stereo not given)	%	57

For the compound CCC(C(=O)C(C)C(O)C(C)CCc1ccc(C)c(O)c1C(=O)O)C1OC(CC)(C2CCC(O)(CC)C(C)O2)CC1C (stereo not given) , what growth inhibition is on record?
28

For the compound "N#CSCc1ccc(Cl)c(CSC#N)c1" , what growth inhibition is on record?
10
